Each entry below carries its recorded IC50.
Biological target: full-length LRRK2 G2019S (Homo sapiens, UniProt Q5S007, G2019S)
Construct: DYKDDDDK (FLAG)
Sequence (Q5S007 whole entry G2019S): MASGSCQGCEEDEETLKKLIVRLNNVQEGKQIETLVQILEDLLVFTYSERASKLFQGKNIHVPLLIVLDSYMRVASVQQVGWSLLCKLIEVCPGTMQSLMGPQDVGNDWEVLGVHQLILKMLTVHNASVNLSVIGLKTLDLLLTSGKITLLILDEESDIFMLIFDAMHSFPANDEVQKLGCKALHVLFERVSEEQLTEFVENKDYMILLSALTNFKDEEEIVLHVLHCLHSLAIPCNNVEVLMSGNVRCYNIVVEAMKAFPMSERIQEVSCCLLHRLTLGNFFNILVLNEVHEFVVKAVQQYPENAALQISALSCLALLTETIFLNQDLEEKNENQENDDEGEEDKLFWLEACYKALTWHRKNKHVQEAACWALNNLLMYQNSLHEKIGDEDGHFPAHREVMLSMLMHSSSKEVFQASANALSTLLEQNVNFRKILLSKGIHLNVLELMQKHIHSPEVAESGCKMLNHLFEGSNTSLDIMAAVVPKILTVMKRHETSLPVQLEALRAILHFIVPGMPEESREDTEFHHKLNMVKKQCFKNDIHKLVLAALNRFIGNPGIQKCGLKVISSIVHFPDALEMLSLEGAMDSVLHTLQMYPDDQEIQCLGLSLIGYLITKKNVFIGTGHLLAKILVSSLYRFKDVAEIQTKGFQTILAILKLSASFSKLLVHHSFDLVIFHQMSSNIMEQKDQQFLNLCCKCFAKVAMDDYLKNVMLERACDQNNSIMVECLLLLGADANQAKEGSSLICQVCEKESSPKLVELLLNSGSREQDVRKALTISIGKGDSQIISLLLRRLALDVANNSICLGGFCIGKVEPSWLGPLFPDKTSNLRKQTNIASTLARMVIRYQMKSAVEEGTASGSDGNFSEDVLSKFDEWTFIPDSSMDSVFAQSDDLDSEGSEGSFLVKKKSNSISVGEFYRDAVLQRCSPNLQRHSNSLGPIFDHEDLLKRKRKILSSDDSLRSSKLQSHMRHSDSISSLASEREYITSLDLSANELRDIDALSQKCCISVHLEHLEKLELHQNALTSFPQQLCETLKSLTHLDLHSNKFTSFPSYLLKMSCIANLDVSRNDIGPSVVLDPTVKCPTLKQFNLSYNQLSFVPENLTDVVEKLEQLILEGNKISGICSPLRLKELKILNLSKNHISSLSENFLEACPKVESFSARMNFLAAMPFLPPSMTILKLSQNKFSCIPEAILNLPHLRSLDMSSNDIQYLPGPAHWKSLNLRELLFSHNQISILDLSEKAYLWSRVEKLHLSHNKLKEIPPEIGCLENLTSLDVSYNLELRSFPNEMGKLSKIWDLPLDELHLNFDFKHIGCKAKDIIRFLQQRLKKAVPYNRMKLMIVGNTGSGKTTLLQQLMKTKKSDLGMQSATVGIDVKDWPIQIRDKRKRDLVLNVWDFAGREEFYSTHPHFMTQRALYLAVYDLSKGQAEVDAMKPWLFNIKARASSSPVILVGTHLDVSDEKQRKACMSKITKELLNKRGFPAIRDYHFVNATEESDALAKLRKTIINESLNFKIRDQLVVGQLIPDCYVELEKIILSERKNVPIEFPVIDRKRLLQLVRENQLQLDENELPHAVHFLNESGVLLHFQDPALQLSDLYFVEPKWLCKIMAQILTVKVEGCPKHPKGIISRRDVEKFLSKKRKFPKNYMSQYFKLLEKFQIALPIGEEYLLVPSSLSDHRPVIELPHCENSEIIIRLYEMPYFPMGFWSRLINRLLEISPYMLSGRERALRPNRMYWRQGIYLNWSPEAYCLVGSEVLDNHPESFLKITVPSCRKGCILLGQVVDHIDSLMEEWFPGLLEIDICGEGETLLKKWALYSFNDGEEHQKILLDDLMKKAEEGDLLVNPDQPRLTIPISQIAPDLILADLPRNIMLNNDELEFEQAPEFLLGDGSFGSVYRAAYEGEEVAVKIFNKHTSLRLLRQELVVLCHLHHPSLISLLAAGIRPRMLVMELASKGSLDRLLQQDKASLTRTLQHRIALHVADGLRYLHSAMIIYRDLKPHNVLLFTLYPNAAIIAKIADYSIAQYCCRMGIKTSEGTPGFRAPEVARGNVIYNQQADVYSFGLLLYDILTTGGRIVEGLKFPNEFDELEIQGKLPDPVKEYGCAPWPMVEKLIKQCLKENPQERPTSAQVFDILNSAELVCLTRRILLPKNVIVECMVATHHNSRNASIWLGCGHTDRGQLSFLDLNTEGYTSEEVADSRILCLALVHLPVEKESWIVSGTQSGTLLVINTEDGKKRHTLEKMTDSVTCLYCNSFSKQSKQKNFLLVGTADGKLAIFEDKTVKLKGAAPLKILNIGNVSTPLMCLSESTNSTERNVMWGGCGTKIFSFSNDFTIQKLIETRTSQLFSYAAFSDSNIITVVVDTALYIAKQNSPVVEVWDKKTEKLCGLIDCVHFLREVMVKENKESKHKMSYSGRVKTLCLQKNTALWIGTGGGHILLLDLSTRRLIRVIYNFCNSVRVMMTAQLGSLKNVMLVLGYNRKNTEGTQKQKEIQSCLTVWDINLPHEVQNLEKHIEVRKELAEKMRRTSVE
Experiment: LRRK2-G2019S kinase activity assay (Lanthascreen TR-FRET)
Details: 1.1 mM ATP

>  <COMPOUND>
COC[C@H](C)n1c(C#N)cc2cnc(Nc3cn(CCO)nc3OC3CCOC3)nc21 (mixture of isomers)

>  <MEASURE_UNIT>
nM

>  <IC50>
27

$$$$
>  <COMPOUND>
[2H]C([2H])([2H])n1cc(Nc2ncc3cc(C#N)n([C@@H](C)COC)c3n2)c(OC2CC(O)C2(C)C)n1 (single isomer, unassigned) [Example 135]

>  <MEASURE_UNIT>
nM

>  <IC50>
39

$$$$
>  <COMPOUND>
COCCn1cc(Nc2ncc3cc(C#N)n([C@@H](C)COC)c3n2)c(OC2CC2)n1

>  <MEASURE_UNIT>
nM

>  <IC50>
31

$$$$
>  <COMPOUND>
C[C@H]1COC[C@@H]1n1c(C#N)cc2cnc(Nc3cn(C)nc3OC3CCC34COC4)nc21 (stereo partly drawn)

>  <MEASURE_UNIT>
nM

>  <IC50>
1

$$$$
>  <COMPOUND>
[2H]C([2H])([2H])n1cc(Nc2ncc3cc(C#N)n([C@H]4COC[C@@H]4C)c3n2)c(O[C@@H]2COC[C@H]2O)n1 (single isomer, unassigned) [Example 114]

>  <MEASURE_UNIT>
nM

>  <IC50>
28

$$$$
>  <COMPOUND>
COCCn1cc(Nc2ncc3cc(C#N)n([C@H]4COC[C@@H]4C)c3n2)c(OC2CC2)n1

>  <MEASURE_UNIT>
nM

>  <IC50>
27

$$$$
